Target: Histone-lysine N-methyltransferase SETD7 (Homo sapiens, UniProt Q8WTS6)
Sequence (Q8WTS6 whole entry): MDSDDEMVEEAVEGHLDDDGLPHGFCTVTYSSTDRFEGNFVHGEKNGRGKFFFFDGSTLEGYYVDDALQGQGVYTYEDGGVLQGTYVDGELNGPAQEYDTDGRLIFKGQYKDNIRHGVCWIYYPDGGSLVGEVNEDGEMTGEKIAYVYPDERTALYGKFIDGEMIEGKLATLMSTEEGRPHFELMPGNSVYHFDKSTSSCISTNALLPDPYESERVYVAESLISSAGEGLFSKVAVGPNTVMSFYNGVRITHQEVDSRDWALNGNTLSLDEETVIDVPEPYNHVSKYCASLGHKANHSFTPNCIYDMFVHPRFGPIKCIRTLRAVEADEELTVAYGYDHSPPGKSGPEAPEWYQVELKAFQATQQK
Experiment: Inhibition of SET7 (unknown origin)
measuredQuantity: pIC50
Give bare numbers, as −log10 of the molar value.

Exam item: # return recorded pIC50 for entry CN1CCC(=C2c3ccccc3C=Cc3ccccc32)CC1
Marked response: 4.70
